Recorded IC50 for the following molecules
# EXPERIMENTAL_SYSTEM: GSK3β (Homo sapiens, UniProt P49841)
# Sequence (P49841 whole entry, species assumed): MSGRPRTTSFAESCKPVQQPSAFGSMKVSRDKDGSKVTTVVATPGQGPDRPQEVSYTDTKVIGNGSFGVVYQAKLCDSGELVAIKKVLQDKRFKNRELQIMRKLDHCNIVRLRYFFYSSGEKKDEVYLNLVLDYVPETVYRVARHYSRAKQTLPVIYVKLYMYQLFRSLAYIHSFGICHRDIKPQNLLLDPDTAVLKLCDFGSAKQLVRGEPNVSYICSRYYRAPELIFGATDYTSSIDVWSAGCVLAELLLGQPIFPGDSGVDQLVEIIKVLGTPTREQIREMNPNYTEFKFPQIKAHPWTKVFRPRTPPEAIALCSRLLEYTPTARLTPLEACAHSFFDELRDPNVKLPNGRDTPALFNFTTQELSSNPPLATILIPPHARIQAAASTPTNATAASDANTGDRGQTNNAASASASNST
# EXPERIMENT_NOTES: GSK3beta assay (SPA, biotinylated phosphorylated CREB peptide, ATP-P33)
# Assay type: biochemical
# CONDITIONS: ranges of pIC50 (−log IC50 (M)); 1 μM ATP, room temperature, one hour; read-out: GSK3b pIC50 (converted)

Below: 3 molecules and their reported IC50.
COCCOc1cccc(-n2nnc3cnc(Nc4ccc(C(=O)N5CCN(C)CC5)cc4)nc32)c1 = 1e-08 to 1e-07 M
COCCOc1cccc(-n2nnc3cnc(Nc4ccc(OCCN5CCN(C)CC5)cc4)nc32)c1 = 1e-08 to 1e-07 M
Fc1cccc(-n2nnc3cnc(Nc4cccc(-c5cnco5)c4)nc32)c1 = < 1e-08 M

query: Identify measured IC50 associated with `O=c1[nH]nc(-c2cccc(Nc3ncc4nnn(-c5cccc(Br)c5)c4n3)c2)[nH]1`
result: 1e-08 to 1e-07 M

query: Specify IC50 for `COCc1cccc(-n2nnc3cnc(Nc4cccc(-c5ccnc(N)n5)c4)nc32)c1` and stop.
result: < 1e-08 M

query: Fill in reported IC50 for this entry: `Cn1cnnc1-c1cccc(Nc2ncc3nnn(-c4cccc(F)c4)c3n2)c1`
result: < 1e-08 M

query: # return recorded IC50 for entry `Fc1cccc(-n2nnc3cnc(Nc4ccc(-n5cccn5)cc4)nc32)c1`
result: 1e-08 to 1e-07 M

query: Give the reported IC50 for this molecule. `Fc1cccc(-n2nnc3cnc(Nc4cccc(-c5cnccn5)c4)nc32)c1`
result: < 1e-08 M

----------
IC50 values for the compounds below.
# EXPERIMENTAL_SYSTEM: GSK3β (Homo sapiens)
# EXPERIMENT_NOTES: GSK3beta assay (SPA, biotinylated phosphorylated CREB peptide, ATP-P33)
# Format: biochemical
# CONDITIONS: ranges of pIC50 (−log IC50 (M)); 1 μM ATP, room temperature, one hour; read-out: GSK3b pIC50 (converted)

query: Report measured IC50; entry is COCc1cccc(-n2nnc3cnc(Nc4ccc(OCCCN5CCN(C)CC5)cc4)nc32)c1 [Compound 106]
result: 1e-08 M

query: Kindly indicate its recorded IC50. Item: Cn1nnc(-c2ccc(Nc3ncc4nnn(-c5cccc(F)c5)c4n3)cc2)n1 [Compound 42]
result: < 1e-08 M

query: Entry O=c1[nH]nc(-c2cccc(Nc3ncc4nnn(-c5cccc(F)c5)c4n3)c2)[nH]1 [Compound 1] needs its IC50 filled in; supply it.
result: < 1e-08 M

query: Provide measured IC50 value, entry: N#CCc1cccc(-n2nnc3cnc(Nc4ccc(C(=O)NCCN5CCOCC5)cc4)nc32)c1 [Compound 92]
result: < 1e-08 M

query: Specify IC50 for COCc1cccc(-n2nnc3cnc(Nc4ccc(C(=O)NCCN5CCOCC5)cc4)nc32)c1 [Compound 104] and stop.
result: < 1e-08 M

query: Input CC(C)CC(=O)NCc1cccc(-n2nnc3cnc(Nc4cccc(-c5ccnc(N)n5)c4)nc32)c1 [Compound 121] , output reported IC50.
result: < 1e-08 M

query: Give the reported IC50 for this compound. Cn1nnnc1-c1cccc(Nc2ncc3nnn(-c4cccc(S(N)(=O)=O)c4)c3n2)c1 [Compound 146]
result: 1e-08 M

query: For the compound Cn1nccc1-c1cccc(Nc2ncc3nnn(-c4cccc(Br)c4)c3n2)c1 [Compound 8] , give its measured IC50 value.
result: > 1e-07 M

query: Quickly give me recorded IC50 for Cn1ccnc1-c1cccc(Nc2ncc3nnn(-c4ccc(CCO)cc4)c3n2)c1 [Compound 56]
result: 1e-08 to 1e-07 M

query: Return IC50 for the following compound: Cc1ccc(-n2nnc3cnc(Nc4cccc(-c5nccn5C)c4)nc32)cc1Cl [Compound 60]
result: 1e-08 to 1e-07 M

query: Fill in reported IC50 for this entry: N#CCc1cccc(-n2nnc3cnc(Nc4ccc(CN5CCC(O)CC5)cc4)nc32)c1 [Compound 90]
result: < 1e-08 M

query: Give IC50 for the following compound: COCCOCc1cccc(-n2nnc3cnc(Nc4ccc(OCCCN5CCN(C)CC5)cc4)nc32)c1 [Compound 113]
result: 1e-08 to 1e-07 M

query: Provide measured IC50 value, entry: Nc1nccc(-c2cccc(Nc3ncc4nnn(-c5ccccc5)c4n3)c2)n1 [Compound 151]
result: < 1e-08 M

query: Retrieve IC50 measured for Cn1ccnc1-c1cccc(Nc2ncc3nnn(-c4cccc(F)c4)c3n2)c1 [Compound 24] and print it.
result: < 1e-08 M

query: Return value of IC50 for input Brc1cccc(-n2nnc3cnc(Nc4ccc(-n5cncn5)cc4)nc32)c1 [Compound 51] , no commentary.
result: 1e-08 to 1e-07 M

query: For the compound Nc1nccc(-c2cccc(Nc3ncc4nnn(-c5cccc(CO)c5)c4n3)c2)n1 [Compound 97] , give its reported IC50.
result: < 1e-08 M

query: Tell me measured IC50 for Brc1cccc(-n2nnc3cnc(Nc4cccc(-c5cncnc5)c4)nc32)c1 [Compound 47] please.
result: < 1e-08 M

query: Recall and state the measured IC50 for Cn1ccnc1-c1cccc(Nc2ncc3nnn(-c4ccc(Br)cc4)c3n2)c1 [Compound 49] .
result: 1e-08 to 1e-07 M

query: Provide only the value of recorded IC50 for CN1CCN(Cc2ccc(Nc3ncc4nnn(-c5cccc(CC#N)c5)c4n3)cc2)CC1 [Compound 89]
result: 1e-08 to 1e-07 M

query: Give the reported IC50 for this compound. Fc1cccc(-n2nnc3cnc(Nc4cccc(-c5ncc[nH]5)c4)nc32)c1 [Compound 149]
result: < 1e-08 M

query: Annotate the compound COCc1cccc(-n2nnc3cnc(Nc4ccc(C(=O)N5CCN(C)CC5)cc4)nc32)c1 [Compound 103] with its measured IC50.
result: < 1e-08 M

query: Answer with the recorded IC50 of Brc1cccc(-n2nnc3cnc(Nc4ccc(Nc5ncccn5)cc4)nc32)c1 [Compound 54] only.
result: 1e-08 to 1e-07 M
